assay info: NCI Yeast Anticancer Drug Screen. Data for the rad50 strain (AID 155);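 further: 0% = growth of vehicle-only cultures of the same strain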
run conditions: S. cerevisiae rad50 strain growth inhibition; at 50.0 µM; stronger effect = higher value
The panel holds about 79,000 compounds, 15% with a hit somewhere; the sample as a whole holds those more often.

compound | growth inhibition / %
CC1CN(c2ccc(Cl)cc2)CC(C)OC(=O)O1 (configuration not stated) | 18.8
O=C(N/N=C\c1ccc(Cl)cc1Cl)c1ccccc1S | -59.4
O=C(O)/C(=C\c1cc2c(cc1[N+](=O)[O-])OCO2)c1ccccc1 | 3.8
COc1cc(C(=O)NC2CCc3cc(OC)c(OC)c(OC)c3-c3ccc(OC)c(=O)cc32)cc(OC)c1OC (configuration not stated) | 26.4
CCCCCCNC(=O)NC | -2.3
CC(C)(Br)CS(=O)(=O)c1ccccc1 | 38.1
CCOC(C#CC(=O)C(C)C)OCC | -17.2
CCCCCCC[CH2][Sn]1([CH2]CCCCCCC)[O]C2C(CO)OC(n3ccc4c(N)ncnc43)C2[O]1 (configuration not stated) | -0.4
CCC(=O)c1nc(N)[nH]c1CC | -36.7
N#C/C(C(=N)c1ccccc1)=C1\SS/C(=C(\C#N)C(=N)c2ccccc2)S1 | 7.2
O=CC(=O)c1cccc([N+](=O)[O-])c1 | 3.55
CCC(C)(O)C#CC(C)(O)CC (configuration not stated) | -0.1

====

Catalogue of growth inhibition readings, one per entry.
assay info: NCI Yeast Anticancer Drug Screen. Data for the mlh1 rad18 strain (AID 175)
run conditions: S. cerevisiae mlh1 rad18 strain growth inhibition; at 50.0 µM; stronger effect = higher value
About 79,000 compounds went through this panel and 15% of them were active in at least one assay; those are over-represented in the sample as a whole.

compound | growth inhibition, %
Cc1oc2nc(N(C)C)n3nnnc3c2c1C | -14.4
Cc1ccc(S(=O)(=O)NN=C2CCCCC2)cc1 | -11.8
CCOC(=O)C(C)(C(C)=O)c1nc(=S)[nH]c(=S)[nH]1 (configuration not stated) | -5.1
CC(C)S(=O)(=O)c1s[nH]c(=O)c1-c1ccccc1 | -1.2
O=C(O)C(CBr)c1ccccc1 (configuration not stated) | 0.5
CC(=O)O[C@H]1C[C@]2(C)C(CCC3O[C@@]32C)[C@@]2(CC(c3ccoc3)OC2O)[C@@H]1C (some centres not stated) | -13.2
COc1ccc(OC)c(-c2cc(C(=O)O)c3cc4ccccc4cc3n2)c1 | 17.2
CC(C)=CCc1c(O)ccc2ccc(=O)oc12 | 29.4
O=C(O)[C@H]1C[C@H](O)CCN1 | -10.6
CCOC(=O)C1C=C1C(C)(C)O (configuration not stated) | -32.9
N#CC(=C1CCN(Cc2ccccc2)CC1)c1ccccc1 | 35.2
Cc1cnc2cccc(C)c2c1Cl | -3.3

====

assay info: NCI Yeast Anticancer Drug Screen. Data for the mlh1 rad18 strain (AID 175)
run conditions: S. cerevisiae mlh1 rad18 strain growth inhibition; at 50.0 µM; stronger effect = higher value
The panel holds about 79,000 compounds, 15% with a hit somewhere; the sample as a whole holds those more often.
Mark Condition met for reported growth inhibition of -10% or greater; mark Condition not met for anything smaller.

compound | answer label
O=S(=O)(SC(S(=O)(=O)c1ccccc1)S(=O)(=O)c1ccccc1)c1ccccc1 | Condition met
Cc1nc(/N=C(/N)N(C)C)[nH]c(=O)c1C | Condition met
NC(=O)N/N=C1\CC2CCC1C2Cl (stereo unspecified) | Condition not met
OCc1ccc(CO)o1 | Condition met
O=C(c1c(F)c(F)c(F)c(F)c1F)n1c(=O)[nH]c2ccccc21 | Condition not met
O=C1C2CCC(C2)C12CC1(c3ccccc3)C(=O)c3ccccc3N1O2 (stereo unspecified) | Condition not met
